biological target: TrkB (Rattus norvegicus, UniProt Q63604); construct: endogenous in cells; host or cells: primary rat cortical neurons (E17 embryos, 13 DIV); assay: TrkB phosphorylation in primary rat cortical neurons (immunoblotting); format: cell-based; conditions: 500 nM compound, 20 min, primary rat cortical neurons, immunoblotting
Sequence (Q63604 32-821): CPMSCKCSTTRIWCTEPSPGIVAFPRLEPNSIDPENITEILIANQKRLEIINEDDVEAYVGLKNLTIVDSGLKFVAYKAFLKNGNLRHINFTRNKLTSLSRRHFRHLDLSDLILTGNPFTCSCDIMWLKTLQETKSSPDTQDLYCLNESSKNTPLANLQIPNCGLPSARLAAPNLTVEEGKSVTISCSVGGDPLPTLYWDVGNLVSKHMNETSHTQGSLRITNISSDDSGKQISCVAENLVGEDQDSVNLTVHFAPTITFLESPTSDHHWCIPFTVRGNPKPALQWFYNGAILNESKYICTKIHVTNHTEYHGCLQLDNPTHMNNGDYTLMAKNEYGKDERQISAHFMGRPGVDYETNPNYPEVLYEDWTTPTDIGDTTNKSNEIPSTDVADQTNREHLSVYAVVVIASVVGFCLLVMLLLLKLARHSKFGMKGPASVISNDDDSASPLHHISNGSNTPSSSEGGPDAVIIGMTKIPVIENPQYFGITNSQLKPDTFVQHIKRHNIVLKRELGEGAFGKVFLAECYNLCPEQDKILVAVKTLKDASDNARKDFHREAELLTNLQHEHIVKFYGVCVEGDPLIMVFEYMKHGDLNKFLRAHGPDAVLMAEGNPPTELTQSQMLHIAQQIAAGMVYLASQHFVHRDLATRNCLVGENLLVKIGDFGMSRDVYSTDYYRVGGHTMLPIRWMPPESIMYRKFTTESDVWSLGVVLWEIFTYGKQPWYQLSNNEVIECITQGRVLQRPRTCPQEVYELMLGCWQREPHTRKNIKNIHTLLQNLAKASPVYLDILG
measuredQuantity: TrkB activation (phosphorylation) compared to vehicle control

| compound | assayResult |
| --- | --- |
| COc1ccc(-c2cc(=O)c3ccc(O)cc3o2)cc1 [7-hydroxy-4′methoxyflavone, reference compound] | barely activated TrkB |
| O=c1cc(-c2ccc(O)cc2)oc2c(O)c(O)ccc12 [7,8,4′-trihydroxyflavone, reference compound] | barely activated TrkB |

Sourced from patent US9504674B2
